Catalogue of compounds with associated GI50
- System: SK-OV-3
- experimental details: NCI tumour cell line growth inhibition, 48 h
Structures can show the parent of a compound that is named as a salt. Active and inactive are the calls of the source. Rule as the data show it: active = GI50 up to about 1.1 µM and inactive = higher.

compound	GI50
COc1ccc(OC)c2cc(C3(C)SCCCS3)ccc12	> 100 µM (inactive)
COc1cc(C)c(/C=C2/N=C(c3ccccc3)OC2=O)c([N+](=O)[O-])c1OC	> 100 µM (inactive)
O=C1c2cc3c(cc2CC12Cc1cc4c(cc1C2=O)CCC4)CCCC3 (stereo not given)	> 100 µM (inactive)
COc1ccc(CCNC(=O)c2ccccc2C2c3ccc(OCc4ccccc4)cc3Oc3cc(OCc4ccccc4)ccc32)cc1OC	> 100 µM (inactive)
Clc1cccc(N2CCN(CCN3CCc4c([nH]c5ccccc45)C3c3cccnc3)CC2)c1 (stereo not given)	> 100 µM (inactive)
N=S(=O)(c1ccccc1)c1ccccc1	> 100 µM (inactive)
Brc1ccc(C2=NCSC(c3ccc(Br)cc3)=N2)cc1	43.1 µM (inactive)
O=C(Nc1cc(Cl)c(Cl)cc1Cl)C(=O)C(C(=O)c1ccc(Cl)c(Cl)c1)C1OC(=O)c2ccccc21 (stereo not given)	26.1 µM (inactive)
Cn1c(=O)cc(NCc2ccc(Cl)cc2)[nH]c1=O	> 100 µM (inactive)
CNC(C)Cc1ccccc1OC (stereo not given) [METHOXYPHENAMINE HYDROCHLORIDE]	> 100 µM (inactive)
NC(CCOCCP(=O)(O)O)C(=O)O (stereo not given)	> 100 µM (inactive)
C[C@H]1C[C@@H]2[C@H]([C@@H](O)C[C@@]3(C)[C@H]2CC[C@]3(O)C(=O)CO)[C@@]2(C)C=CC(=O)C=C12 [METHYLPREDNISOLONE]	> 100 µM (inactive)
CO[C@@H]1C=C[C@@]23c4cc5c(cc4CN(C[C@@H]2O)[C@H]3C1)OCO5 [(+)-HAEMANTHAMINE]	19.5 µM (inactive)
CN(/N=C\c1ccc2ccccc2c1)C1=NCCCCN1	22.1 µM (inactive)
NCCCCNCCCN [SPERMIDINE TRIHYDROCHLORIDE]	> 100 µM (inactive)
O=C1/C(=C\c2ccco2)Oc2ccccc21	> 100 µM (inactive)
N#CC(=C1CCN(CCCC(=O)c2ccc(F)cc2)CC1)c1ccccc1	> 100 µM (inactive)
c1cc2c(cc1C1OCC3C(c4ccc5c(c4)OCO5)OCC13)OCO2 (stereo not given)	> 100 µM (inactive)
CC1=C(C)C1[N+](=O)[O-]	> 100 µM (inactive)
CC(=O)O[C@H]1C(=O)[C@@]2(C)[C@H]([C@H](OC(=O)c3ccccc3)[C@]3(O)C[C@H](OC(=O)[C@H](O)[C@@H](NC(=O)c4ccccc4)c4ccccc4C)C(C)=C1C3(C)C)[C@]1(OC(C)=O)CO[C@@H]1C[C@@H]2O	1.02 µM (active)
CN(C)CCNC(=O)Cn1ccc(=O)c2ccc([N+](=O)[O-])cc21	> 100 µM (inactive)
O=[N+]([O-])c1ccc(Cl)cc1-n1nc(-c2ccccc2)cc1-c1ccccc1	> 100 µM (inactive)
CN1C[C@H](C(=O)N[C@]2(C)O[C@@]3(O)[C@@H]4CCCN4C(=O)[C@H](Cc4ccccc4)N3C2=O)C=C2c3cccc4[nH]cc(c34)C[C@H]21 [ERGOTAMINE TARTRATE]	29.9 µM (inactive)
COc1ccc2c(c1O)[C@@]13C=C(O)C(=O)C=C1[C@@H](C2)N(C)CC3	> 100 µM (inactive)
NCCCNOCCCN	> 100 µM (inactive)
CC(=O)OC1COC(n2ccc3cc(Br)c([N+](=O)[O-])cc32)C(OC(C)=O)C1OC(C)=O (stereo not given)	31.8 µM (inactive)
O=C1C(=Cc2c(O)cc(O)cc2O)C(=O)c2ccccc21	> 100 µM (inactive)
O=c1c2ccccc2n2nnc3ccc(NCCCNCCNCCCNc4ccc5nnn6c7ccccc7c(=O)c4c56)c1c32	> 20.3 µM (inactive)
N#C/C(=C/c1ccc2c(c1)OCO2)C(=O)c1ccccc1	> 100 µM (inactive)
O=C(CC(C(=O)c1cccs1)c1ccsc1)c1ccccc1 (stereo not given)	> 100 µM (inactive)
CCC(CCN)(CCN)[N+](=O)[O-]	> 100 µM (inactive)
C#CCCOC(=O)CC1=C(C)/C(=C/c2ccc([S+](C)[O-])cc2)c2ccc(F)cc21 (stereo not given)	37 µM (inactive)
CN(C)C(=S)/N=c1\ss/c(=N\C(=S)N(C)C)n1-c1ccc2c(c1)OCO2	> 100 µM (inactive)
CN(C)CCNC(=O)C(C)(C)Oc1ccc(C(=O)c2ccc(Cl)cc2)cc1Cl	15.9 µM (inactive)
CN(c1n[n+]2c(-c3ccccc3)csc2s1)c1n[n+]2c(-c3ccccc3)csc2s1	> 100 µM (inactive)
Cc1ccc2c(c1)S(=O)(=O)c1ccc3ccccc3c1N2	> 100 µM (inactive)
Cc1ccc2c(O)cc(-c3csc4ccccc34)nc2n1	< 0.01 µM (active)
COc1ccc(NC(=O)CC/C(CC(=O)C(C)(C)C)=N\NC(=O)C(N)=O)cc1	> 100 µM (inactive)
COC1=C(OC)CCC(/C(C#N)=C/c2ccc(OC)c(OC)c2)=C1	26.4 µM (inactive)
COC(OC)C1OCC(n2cc(F)c(=O)[nH]c2=O)C1O (stereo not given)	> 100 µM (inactive)
